This collection of values is drawn from patent US10508086B2.

- Study target: UniProt Q86W56
- Sequence (Q86W56 whole entry): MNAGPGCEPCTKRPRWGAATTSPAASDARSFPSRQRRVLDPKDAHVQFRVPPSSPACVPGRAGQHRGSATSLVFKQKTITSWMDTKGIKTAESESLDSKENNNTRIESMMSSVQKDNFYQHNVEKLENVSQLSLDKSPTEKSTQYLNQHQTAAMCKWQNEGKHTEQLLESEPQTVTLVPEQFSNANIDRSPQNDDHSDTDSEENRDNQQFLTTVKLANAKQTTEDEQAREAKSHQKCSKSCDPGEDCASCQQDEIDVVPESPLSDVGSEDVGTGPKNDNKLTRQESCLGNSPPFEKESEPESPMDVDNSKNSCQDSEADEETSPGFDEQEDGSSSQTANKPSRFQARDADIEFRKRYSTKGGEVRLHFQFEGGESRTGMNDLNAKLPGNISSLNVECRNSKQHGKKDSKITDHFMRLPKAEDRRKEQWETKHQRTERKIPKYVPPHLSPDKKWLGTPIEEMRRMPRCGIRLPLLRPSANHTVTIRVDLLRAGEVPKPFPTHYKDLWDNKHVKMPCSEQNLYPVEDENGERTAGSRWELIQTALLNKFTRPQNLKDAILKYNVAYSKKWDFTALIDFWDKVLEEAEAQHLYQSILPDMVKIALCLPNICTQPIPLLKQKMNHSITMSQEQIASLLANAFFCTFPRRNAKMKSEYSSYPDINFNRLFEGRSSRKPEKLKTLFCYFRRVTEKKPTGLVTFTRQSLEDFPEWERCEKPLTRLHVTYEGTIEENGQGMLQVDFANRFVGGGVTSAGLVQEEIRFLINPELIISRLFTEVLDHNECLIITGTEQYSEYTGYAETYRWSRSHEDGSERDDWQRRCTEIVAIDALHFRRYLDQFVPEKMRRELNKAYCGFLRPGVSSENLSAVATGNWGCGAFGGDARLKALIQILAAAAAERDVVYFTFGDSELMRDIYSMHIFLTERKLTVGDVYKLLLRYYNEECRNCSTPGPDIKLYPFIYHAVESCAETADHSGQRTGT
- Assay: PARG in vitro enzyme assay (TR-FRET)
- Measurement conditions: read-out: PARG_EC50_ENZYME
Measured EC50 determines class: bin 1: < 400 nM; bin 2: ≥ 400 nM and < 4000 nM; bin 3: ≥ 4000 nM

compound=Cc1nnc(-n2c(=O)n(CCCN(C)C)c3ccc(S(=O)(=O)NC4(C)CC4)cc32)o1 class_assignment="bin 2"
compound=Cn1c(=O)n(Cc2ccccc2C(F)(F)F)c2ccc(S(=O)(=O)NC3(C)CC3)cc21 class_assignment="bin 3"
compound=Cn1c(=O)n(Cc2cccc(Cl)c2)c2ccc(S(=O)(=O)NC3(C)CC3)cc21 class_assignment="bin 3"
compound=Cc1nnc(-n2c(=O)n(CCN3CCCCC3)c3ccc(S(=O)(=O)NC4(C)CC4)cc32)o1 class_assignment="bin 2"
compound=Cn1c(=O)n(Cc2ccccc2F)c2ccc(S(=O)(=O)NC3(C)CC3)cc21 class_assignment="bin 3"

Exercise: Which class holds "COCCn1c(=O)n(-c2nnc(C(F)F)s2)c2cc(S(=O)(=O)NC3(CF)CC3)ccc21" ?
Solution: bin 1

Exercise: Which class holds Cc1nnc(-n2c(=O)n(CC3CCCCN3C)c3ccc(S(=O)(=O)NC4(C)CC4)cc32)s1 (centres unmarked) ?
Solution: bin 2

Exercise: Which class holds "CCn1c(=O)n(-c2nnc(C(F)F)s2)c2cc(S(=O)(=O)NC3(CF)CC3)c(F)cc21" ?
Solution: bin 1

Exercise: Which class holds "CCn1c(=O)n(-c2nnc(C)s2)c2cc(S(=O)(=O)NC3(CF)CC3)ccc21" ?
Solution: bin 2

Exercise: Which class holds "Cn1c(=O)n(C(=O)c2ccccc2)c2cc(S(=O)(=O)NC3(C)CC3)ccc21" ?
Solution: bin 2
